- experimentalSystem: Papain (Carica papaya, UniProt P00784)
- Sequence (P00784 134-345): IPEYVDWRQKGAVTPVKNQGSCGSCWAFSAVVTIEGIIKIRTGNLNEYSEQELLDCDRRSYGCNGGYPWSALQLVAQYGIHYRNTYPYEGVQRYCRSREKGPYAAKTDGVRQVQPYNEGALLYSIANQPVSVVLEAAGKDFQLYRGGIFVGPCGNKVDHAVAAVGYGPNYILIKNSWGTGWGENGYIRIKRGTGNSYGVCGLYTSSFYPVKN
- measurementNotes: Papain inhibition, Ki by Dixon plot (Table PKC1)
- Format: biochemical
- assayConditions: 50 mM Tris-HCl pH 7.5, 20 mM EDTA, 5 mM cysteine, 9% DMSO, 25° C., substrate Nα-Benzoyl-Arg-NA; read-out: Ki P (Papain), values marked e
Provide the reported Ki of each item.
Provide the reading as a plain figure in µM.

Ask: Lab note: need Ki with Papain (Carica papaya, UniProt P00784) for entry COC(=O)CCC(=O)NC(C(=O)N1CCCC1C(=O)NC(Cc1ccccc1)C(=O)C(=O)OC)C(C)C (racemic) [MeO-Suc-Val-Pro-DL-Phe-COOMe, MeO-Suc-Val-Pro-DL-Phe-CO2 Me] , please look it up.
Result: 2.9

Ask: What is its Ki for Papain (Carica papaya, UniProt P00784)? Entry: CCOC(=O)C(=O)C(Cc1ccccc1)NC(=O)c1ccccc1 (racemic) [Bz-DL-Phe-COOEt, Bz-DL-Phe-CO2 Et]
Result: 500
